measure_name: melting point

compound: COc1ccc(/C=C(\C#N)c2ccc(Cl)cc2)cc1OC1CCCC1
melting point: 129 to 137 °C

Record summary for O=C1C2CCC(C(=O)N2Cc2ccccc2)N1Cc1ccccc1 : reported melting point = 168 to 170 °C

Record summary for O=C1C=C(C2CCCCNC2=O)CCC1 (stereo not given) : reported melting point = 159 to 165 °C

Record summary for CCCCCCCCCCCCCCCCN(C(=O)C(F)(F)F)c1ccc(C(=O)Nc2ccc(C(=O)OCC)cc2)cc1 : reported melting point = 91 to 93 °C

Record summary for CC(=O)Oc1c(Cl)c(C(C)(C)C)oc(=O)c1-c1c(C)cc(C)cc1C : reported melting point = 116 to 118 °C

---

melting point listing for selected compounds.

compound: COc1ccc(NC(=S)Nc2ccc(NNC=O)c(OC)c2)cc1
melting point: 160 to 162 °C
--
compound: Oc1ccc2nc(-c3ccc(O)c(Cl)c3)oc2c1
melting point: 254 to 256 °C
--
compound: CN(Cc1cc2c3c(c1)c(=O)c(C(=O)NCc1ccc(Cl)cc1)cn3CC(=O)N2C)C[C@@H](O)c1cnccn1
melting point: 97 to 98 °C

Continue with the next compound.
Record summary for Cn1cc(-c2cccc(C(F)(F)F)c2)c(=O)c(C2CC=CCC2)c1 (stereo not given) : reported melting point = 194 to 195 °C

---

melting point listing for selected compounds.

Here is how some compounds turned out for melting point.
compound: O=C(O)c1ccc(C(O)(C(F)(F)F)C(F)(F)F)cc1C(=O)O
melting point: 183 to 185 °C

compound: Cc1cc(F)c(F)c(C=O)c1O
melting point: 53 to 56 °C

compound: CNC(=O)c1cccnc1C
melting point: 69 to 72 °C

compound: CC1(C)Oc2ccc(CO)cc2[C@@H](N2CCCC2=O)[C@@H]1O (relative stereo)
melting point: 175 to 178 °C

compound: CCOC(=O)CC(O)c1ccc(-c2ccc([N+](=O)[O-])cc2)o1 (stereo unspecified)
melting point: 79 to 81 °C

Record summary for COc1cc(OC)c2c(=O)[nH]c(-c3ccc(OCCNC(C)C)c(-c4ccc(C(=O)N(C)C)cc4)n3)nc2c1 : reported melting point = 214 to 215 °C

---

melting point listing for selected compounds.

compound: Nc1ccc(OCc2ccccc2)c(Cl)c1
melting point: 54 °C

compound: COc1nc(C)nc2c1-c1ccc(Cl)cc1C(c1ccccc1F)=NC2
melting point: 188 to 189 °C

compound: CCC1N=C(C(N)=O)ON1S(=O)(=O)c1ccccc1Cl (stereo not given)
melting point: 142 °C

compound: COc1ccccc1-c1ncsc1C(=O)O
melting point: 170 to 172 °C

compound: CC1(O)c2ccccc2C(C)(O)c2ccccc21 (stereo not given)
melting point: 178 to 179 °C

compound: O=C(Oc1ccc2ncccc2c1)c1ccccc1
melting point: 77 to 79 °C

compound: CCCCCCCCCCCCCCCCSCC1(CS(=O)(=O)CCCI)CCCO1 (stereo not given)
melting point: 36 to 37 °C

compound: COc1ccc(-c2nc(NC3=NCCN3)sc2-c2ccc(OC)cc2)cc1
melting point: 211 to 214 °C

Record summary for O=C(Oc1ccnc(OC(=O)c2ccccc2)c1)c1ccccc1 : reported melting point = 100 to 102 °C

Record summary for CC(C)Cn1c(CNC(=O)OC(C)(C)C)c(-c2ccccc2F)c2cc(OCc3ccccc3)ccc2c1=O : reported melting point = 138 to 139 °C

---

melting point listing for selected compounds.

compound: N=C(NCc1ccc(Cl)cc1)Nc1cccc(C(F)(F)F)c1
melting point: 103 to 105 °C

Record summary for COc1ccc(-c2cc(-c3ccc(F)cc3)ccc2C(=O)N2CCOCC2)cc1OC : reported melting point = 153 °C

Record summary for CC(C)(C)OC(=O)NCc1ccc(C(=O)Nc2ccc(Nc3cc(-c4cccc5c4oc4ccccc45)ncn3)cc2)c(F)c1 : reported melting point = 255 °C

Record summary for Cn1cc(-c2cc(OC3CCCC3)c(Cl)cc2F)c(=O)cc1C(F)(F)F : reported melting point = 152 to 154 °C

Record summary for CCC(=O)Oc1cccc2c1C(=O)c1c(OC(=O)CC)cccc1C2C(=O)CC : reported melting point = 125 °C

Record summary for CCCOC(=O)c1c(CSc2nccn2C)nc2cc(OC)c(OC)cc2c1-c1ccc(OC)c(OC)c1 : reported melting point = 131 to 132 °C

Record summary for Cc1cc2c3c(c1)C1(CC(=O)NC1=O)C(=O)N3CCC2 (centres undefined) : reported melting point = 165 to 167 °C

Record summary for CS(=O)(=O)c1ccc(C2=C(c3ccccc3)CN(C3CCCCC3)C2=O)cc1 : reported melting point = 183 to 185 °C

Record summary for CNC(=O)c1c(C(F)(F)F)nc(C(F)F)c(C(=O)OC)c1NC(C)C : reported melting point = 128 to 130 °C

---

melting point listing for selected compounds.

Here is how some compounds turned out for melting point.
compound: Fc1ccc(N=c2sc3ccc(Cl)cc3s2)cc1
measure_name: melting point
measurement: 101 to 102 °C

compound: C#CCOc1nc(NN)c(C(F)(F)F)cc1Cl
measure_name: melting point
measurement: 98 to 102 °C

compound: O=C1CN(c2ccccc2)C(=O)C1c1ccccc1 (stereo not drawn)
measure_name: melting point
measurement: 285 to 287 °C

Record summary for CC(C)OC(=O)c1cc(-n2c(=O)c3c(n(C)c2=O)OCC3)c(F)cc1Cl : reported melting point = 170 to 173 °C

Record summary for CC(CN(C)C)Oc1ccc(/C=C/C(=O)O)cc1 (stereo not drawn) : reported melting point = 235 °C

Record summary for CNC1NC(=O)c2sccc2-n2cccc21 (stereo not drawn) : reported melting point = 146 °C

Record summary for COc1ccc2c(c1)C(N1CCN(C)CC1)c1ccccc1CC2 (stereo not drawn) : reported melting point = 119 to 120 °C

Record summary for OCC1C2OCC(O2)C(OCc2ccccc2)C1O (stereo not drawn) : reported melting point = 111 to 113 °C

Record summary for CC(C(=O)O)c1ccc2oc(N)nc2c1 (stereo not drawn) : reported melting point = 225 to 229 °C

Record summary for CC1CCN(CCNc2ccnc3cc(Cl)ccc23)CC1 : reported melting point = 154 to 156 °C

Record summary for CCCc1nc2c(N)nc3ccccc3c2n1OCc1ccccc1 : reported melting point = 164 to 166 °C

Record summary for Cc1[nH]c(C(=O)N2CCC(C(=O)NCCCN(C)C)CC2)c(C)c1-c1nc2ccc(C(=O)c3ccccc3)cc2[nH]1 : reported melting point = 247 to 251 °C

Record summary for ON=C1c2ncc(Cl)cc2C=CC1Cl (stereo not drawn) : reported melting point = 202 °C

Record summary for O=C(Nc1nc(C(F)(F)F)c(I)s1)c1cccs1 : reported melting point = 184 to 185 °C

Record summary for CCOCCCOc1ccc2c(c1)C(N(C)S(C)(=O)=O)CC(C)(C)O2 (stereo not drawn) : reported melting point = 61 to 63 °C

Record summary for C=CCc1nc(SC)nc2ccccc12 : reported melting point = 133 to 135 °C

Record summary for Cc1ccc(C2CC(C(C)(C)C)=NN2c2ccc(C(=O)O)cc2)cc1 (stereo not drawn) : reported melting point = 195 °C

Record summary for NNC(=O)c1ccccc1OCC(F)(F)F : reported melting point = 102 to 104 °C

Record summary for COc1ccc2nc3c(cc2c1)c(C(N)=O)nn3C : reported melting point = 268 to 270 °C

Record summary for CCSC(C)(C)C(=O)CC(=O)Nc1cc(NC(=O)CCCOc2ccc(C(C)(C)CC)cc2C(C)(C)CC)ccc1OC : reported melting point = 57 to 60 °C

Record summary for CC(=O)OCc1ccc(Cl)cc1C(O)c1ccccc1 (stereo not drawn) : reported melting point = 86 to 88 °C

Record summary for CC(O)c1cc2c(n1C)C(=O)c1cccc(O)c1C2=O (stereo not drawn) : reported melting point = 219 to 220 °C

Record summary for CC(C)(C)c1noc(-c2cccc(Cl)n2)n1 : reported melting point = 103 to 104 °C

---

melting point listing for selected molecules.

Here is how some molecules turned out for melting point.
molecule: Cc1nc(NCc2ccccn2)c2c(-c3ccccc3)csc2n1
measure_name: melting point
measurement: 110 to 112 °C

molecule: NCCNC(=O)CCCOc1ccc(C2=NNC(=O)CC2)cc1
measure_name: melting point
measurement: 174 to 175 °C

molecule: CC(C)(C)c1ccc(O)c(S(=O)(=O)CCl)c1
measure_name: melting point
measurement: 94 to 95 °C

molecule: Cc1ccc(S(=O)(=O)N(C)c2ccc(C)c([N+](=O)[O-])c2)cc1
measure_name: melting point
measurement: 104 to 106 °C

molecule: CC(C)(C)c1cc(NC(=O)Nc2ccc(OCCN3CCOCC3)c3ccccc23)[nH]n1
measure_name: melting point
measurement: 206 to 207 °C

Record summary for CCCc1c(OCC2Cc3cc(CC(=O)OC)cc(F)c3O2)ccc(C(C)=O)c1O (stereo unspecified) : reported melting point = 80 to 82 °C

Record summary for O=C(O)CNC(=O)N1CCc2cc(S(=O)(=O)N3CCN(c4cccc(Cl)c4)CC3)ccc21 : reported melting point = 214 °C
